# Tested on: NCI-H226
# Measurement protocol: Cytotoxicity against human NCI-H226 cells after 48 hrs by SRB assay
# Format: functional
# Protocol conditions: NCI-H226, 48 h
Reported LC50 (concentration killing 50% of starting cells) is given for each of the following compounds.
Could you give me the number in µM? Just the number is fine.

Look over these answered cases.
O=C1c2ccccc2C(=O)c2c1cc(Sc1ccc(F)cc1F)c1nsnc21
59.1
CC(C)Sc1cc2c(c3nsnc13)C(=O)c1ccccc1C2=O
14.6

Please look at the following compound next.
Q. Specify LC50 (concentration killing 50% of starting cells) for `O=C1c2ccccc2C(=O)c2c1cc(Sc1cccc(Cl)c1)c1nsnc21` and stop.
A. 57.5
